Source: PubChem BioAssay AID1159580

Experiment: chemical genetic growth profiling, strain panel (AID 1159580);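 further: tested at 20 µM; growth read once vehicle control cultures reached saturation at 30 °C; lower values mean less growth of the strain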
Settings: S. cerevisiae deletion strains, growth OD, locus YCR088W, strain abp1
Among all 5,500 compounds or so, about 2,000 (36%) were called active. About 18% were inconclusive and are not listed. No stated cut-off is given here; in the data, active means normalized growth mostly below about 0.91 (no sharp cut-off); inconclusive means no clear call, values can overlap the other calls; inactive means mostly above about 0.92. Some of the results follow.
Possible outcomes: active, inactive

>  <Molecule>
CC(=O)O[C@@H]1CC[C@@]2(C)C(CC[C@]3(C)C2CC=C2C4CC(C)(C)CC[C@]4(C(=O)O)CC[C@]23C)C1(C)C (stereo partly specified)

>  <Discrete Label>
inactive

$$$$
>  <Molecule>
CCOP(=S)(OCC)Oc1nc(Cl)c(Cl)cc1Cl

>  <Discrete Label>
inactive

$$$$
>  <Molecule>
Cc1ccc(N=CN(C)C=Nc2ccc(C)cc2C)c(C)c1

>  <Discrete Label>
inactive

$$$$
>  <Molecule>
Cc1ccc(S(=O)(=O)NC(=O)NN2CC3CCCC3C2)cc1 (stereo unspecified)

>  <Discrete Label>
inactive

$$$$
>  <Molecule>
Nc1c2ccccc2nc2ccccc12

>  <Discrete Label>
active

$$$$
>  <Molecule>
Cc1cc(O)cc(O)c1C(=O)O

>  <Discrete Label>
inactive

$$$$
>  <Molecule>
CC(C)=CCCC1(C)C=Cc2c(O)c3c(c(CC=C(C)C)c2O1)OC12C(=CC4CC1C(C)(C)OC2(C/C=C(/C)C(=O)O)C4=O)C3=O (stereo unspecified)

>  <Discrete Label>
inactive

$$$$
>  <Molecule>
NNC(=O)c1ccncc1

>  <Discrete Label>
inactive

$$$$
>  <Molecule>
C[C@@H]1CC[C@H]2[C@@H](C)C(=O)O[C@@H]3O[C@@]4(C)CC[C@@H]1[C@]32OO4

>  <Discrete Label>
active

$$$$
>  <Molecule>
C/C=C(/C)C(=O)OC1CCC2(C)C3CCC4C5(O)CC(O)C6(O)C(CN7CC(C)CCC7C6(C)O)C5(O)CC42OC13O (stereo unspecified)

>  <Discrete Label>
inactive

$$$$
>  <Molecule>
COc1ccc2[nH]cc(CCN)c2c1

>  <Discrete Label>
inactive

$$$$
>  <Molecule>
COc1c(-c2coc3cc4c(cc3c2=O)CC(OC(C)=O)C(C)(C)O4)ccc2c1C=CC(C)(C)O2 (stereo unspecified)

>  <Discrete Label>
inactive

$$$$
>  <Molecule>
Cc1cc(O)cc(=O)o1

>  <Discrete Label>
inactive

$$$$
>  <Molecule>
CNC(=O)O/N=C\C(C)(C)SC

>  <Discrete Label>
inactive

$$$$
>  <Molecule>
CC1OC(=O)C(C(C)C)NC(=O)C(C(C)C)OC(=O)C(C(C)C)NC(=O)C(C)OC(=O)C(C(C)C)NC(=O)C(C(C)C)OC(=O)C(C(C)C)NC(=O)C(C)OC(=O)C(C(C)C)NC(=O)C(C(C)C)OC(=O)C(C(C)C)NC1=O (stereo unspecified)

>  <Discrete Label>
active

$$$$
>  <Molecule>
COC(=O)Nc1nc2ccc(Sc3ccccc3)cc2[nH]1

>  <Discrete Label>
inactive

$$$$
>  <Molecule>
CO[C@@]12[C@@H]3NC3CN1C1=C(C(=O)C(N)=C(C)C1=O)[C@@H]2COC(N)=O (stereo partly specified)

>  <Discrete Label>
inactive

$$$$
>  <Molecule>
O=c1ccc2ccc(O)cc2o1

>  <Discrete Label>
inactive

$$$$
>  <Molecule>
CCOC(=O)OC(C)OC(=O)C1N2C(=O)C(NC(=O)[C@H](N)c3ccccc3)C2SC1(C)C (stereo partly specified)

>  <Discrete Label>
inactive

$$$$
>  <Molecule>
OC(CCN1CCCC1)(c1ccccc1)C1CCCCC1 (stereo unspecified)

>  <Discrete Label>
inactive

$$$$
>  <Molecule>
CC(=O)O[C@H]1CC[C@@]2(C)C(CC[C@]3(C)C2CC=C2C4CC(C)(C)CC[C@]4(C)CC[C@]23C)C1(C)C (stereo partly specified)

>  <Discrete Label>
inactive

$$$$
>  <Molecule>
O=c1[nH]cc(F)c(=O)[nH]1

>  <Discrete Label>
active

$$$$
>  <Molecule>
Cc1cc(-n2c(=O)[nH]c(=O)n(C)c2=O)ccc1Oc1ccc(SC(F)(F)F)cc1

>  <Discrete Label>
active

$$$$
>  <Molecule>
CC1(C)CC[C@]2(C)CC[C@]3(C)C(=CCC4[C@@]5(C)CC[C@H](O)C(C)(C)C5CC[C@]43C)C2C1 (stereo partly specified)

>  <Discrete Label>
inactive

$$$$
>  <Molecule>
C[C@@H]1C(=O)O[C@H]2[C@H]1CC[C@@]1(C)C=CC(=O)[C@@]3(C)O[C@@]213

>  <Discrete Label>
inactive

$$$$
>  <Molecule>
CC(C)CCCC1(C)C=Cc2c(O)c3c(c(CCC(C)C)c2O1)OC12C(CC4CC1C(C)(C)OC2(CCC(C)C(=O)O)C4O)C3=O (stereo unspecified)

>  <Discrete Label>
inactive

$$$$
>  <Molecule>
CCC(C)C(NC)C(=O)O (stereo unspecified)

>  <Discrete Label>
inactive

$$$$
>  <Molecule>
COc1c(-c2coc3cc4c(cc3c2=O)CC(O)C(C)(C)O4)ccc2c1C=CC(C)(C)O2 (stereo unspecified)

>  <Discrete Label>
inactive

$$$$
>  <Molecule>
Nc1ccc(S(=O)(=O)Nc2ccnn2-c2ccccc2)cc1

>  <Discrete Label>
inactive

$$$$
>  <Molecule>
CC(C)=CCCC1(C)C=Cc2c(O)c3c(c(CC=C(C)C)c2O1)OC12C(=CCCC1C(C)(C)O[C@@]2(C/C=C(\C)C(=O)O)C(=O)O)C3=O (stereo partly specified)

>  <Discrete Label>
inactive

$$$$
>  <Molecule>
Nc1ccc(S(=O)(=O)Nc2cnc3ccccc3n2)cc1

>  <Discrete Label>
inactive

$$$$
>  <Molecule>
NCCC(=O)N[C@@H](Cc1cnc[nH]1)C(=O)O

>  <Discrete Label>
inactive

$$$$
>  <Molecule>
O=C(CNC(=O)c1ccc(Cl)cc1)NO

>  <Discrete Label>
inactive

$$$$
>  <Molecule>
Cc1cc(O)ccc1Cl

>  <Discrete Label>
inactive

$$$$
>  <Molecule>
CC(CC(=O)C(O)C(C)(C)O)C1C(=O)CC2(C)C3=CCC4C(C)(C)C(OC5OCC(O)C(O)C5O)CCC45CC35C(O)CC12C (stereo unspecified)

>  <Discrete Label>
inactive

$$$$
>  <Molecule>
CC(=O)NCc1c(I)c(NC(C)=O)c(I)c(C(=O)O)c1I

>  <Discrete Label>
inactive

$$$$
>  <Molecule>
O=C1c2c(O)cccc2Cc2cccc(O)c21

>  <Discrete Label>
inactive

$$$$
>  <Molecule>
COc1cccc2c1C(=O)c1c(O)c3c(c(O)c1C2=O)C[C@@](O)(C(C)=O)C[C@@H]3O[C@H]1C[C@H](N)[C@H](O)[C@H](C)O1

>  <Discrete Label>
inactive

$$$$
>  <Molecule>
COc1cc(N)c(Cl)cc1C(=O)NC1CCN(Cc2ccccc2)CC1

>  <Discrete Label>
inactive

$$$$
>  <Molecule>
Cc1cc(O)cc(C)c1Cl

>  <Discrete Label>
active

$$$$
>  <Molecule>
N=C(N)c1ccc(OCCCCCOc2ccc(C(=N)N)cc2)cc1

>  <Discrete Label>
inactive

$$$$
